- Assay info: Toxin crossing and apparent permeability across Caco-2 cell monolayers (A to B), LC-MS/MS
- Format: in vitro ADME, human
- Run conditions: human, Caco-2; 2 h, loaded 32 ng/mL, A to B
Readout name: Papp at 2 h, 32 ng/mL (×10⁻⁶ cm/s)

compound="C=CC1=CC2C3O[C@]4(CCC(O4)[C@@H](C)C[C@@H](O)C3=O)C[C@H](O)C3=NCC[C@@]32CC1 (stereo partly drawn)" readout_name="Papp at 2 h, 32 ng/mL" test_result=14.4
compound="C=C1CCCC2=NCC(C)C(C)CC23CCC(C(=O)O)=CC3C2OC3(CC4CCCC5(CCC6(OC(CCC6(C)O)C1)O5)O4)CC(C)C(O)C2O3 (stereo not drawn)" readout_name="Papp at 2 h, 32 ng/mL" test_result=1.25
compound="C=C1CCCC2=NCC(C)C(C)CC23CCC(C2CCC(=O)O2)=CC3C2OC3(CC(C)CC2O3)CC2OC3(CCC4(OC(CCC4(C)O)C1)O3)CC(C)C2O (stereo not drawn)" readout_name="Papp at 2 h, 32 ng/mL" test_result=6.94
compound="C=C1CCCC2=NCC(C)C(C)CC23CCC(C(O)CCC(=O)O)=CC3C2OC3(CC(C)CC2O3)CC2OC3(CCC4(OC(CCC4(C)O)C1)O3)CC(C)C2O (stereo not drawn)" readout_name="Papp at 2 h, 32 ng/mL" test_result=1.81
compound="C=CC1=CC2C3OC4(CC(C)CC3O4)CC3OC4(CCC5(OC(CCC5(C)O)CC(=C)CCCC5=NCC(C)C(C)CC52CC1)O4)CC(C)C3O (stereo not drawn)" readout_name="Papp at 2 h, 32 ng/mL" test_result=18
compound="C=CC1=CC2C3OC4(CC5CCCC6(CCC7(OC(CCC7(C)O)CC(=C)CCCC7=NCC(C)C(C)CC72CC1)O6)O5)CC(C)C(O)C3O4 (stereo not drawn)" readout_name="Papp at 2 h, 32 ng/mL" test_result=14.3

---

- Test system: Caco-2 cell monolayers
- Assay info: Toxin crossing and apparent permeability across Caco-2 cell monolayers (A to B), LC-MS/MS
- Format: in vitro ADME, human
- Run conditions: 6 h, 32 ng/mL, relative to theoretical loaded concentration
Friendly reminder: % theoretical amount of toxin crossing the Caco-2 cell monolayers below 10% is met, at or above is not met.

compound="C=C1CCCC2=NCC(C)C(C)CC23CCC(C(=O)O)=CC3C2OC3(CC4CCCC5(CCC6(OC(CCC6(C)O)C1)O5)O4)CC(C)C(O)C2O3 (stereo not drawn)" group_label=met
compound="C=C1CCCC2=NCC(C)C(C)CC23CCC(C2CCC(=O)O2)=CC3C2OC3(CC(C)CC2O3)CC2OC3(CCC4(OC(CCC4(C)O)C1)O3)CC(C)C2O (stereo not drawn)" group_label="not met"
compound="C=C1CCCC2=NCC(C)C(C)CC23CCC(C(O)CCC(=O)O)=CC3C2OC3(CC(C)CC2O3)CC2OC3(CCC4(OC(CCC4(C)O)C1)O3)CC(C)C2O (stereo not drawn)" group_label=met
compound="C=CC1=CC2C3OC4(CC(C)CC3O4)CC3OC4(CCC5(OC(CCC5(C)O)CC(=C)CCCC5=NCC(C)C(C)CC52CC1)O4)CC(C)C3O (stereo not drawn)" group_label=met
compound="C=CC1=CC2C3O[C@]4(CCC(O4)[C@@H](C)C[C@@H](O)C3=O)C[C@H](O)C3=NCC[C@@]32CC1 (stereo partly drawn)" group_label="not met"
compound="C=CC1=CC2C3OC4(CC5CCCC6(CCC7(OC(CCC7(C)O)CC(=C)CCCC7=NCC(C)C(C)CC72CC1)O6)O5)CC(C)C(O)C3O4 (stereo not drawn)" group_label="not met"
